I'd be grateful if you could share measured protein stability index for these entries.
PROCEDURE TEXT: protein stability index of a GFP-peptide fusion (yeast GPS) (PSI 1-4); higher = more stable; sorted into four equal gates, so the index is relative within each strain
EXPERIMENTAL CONDITIONS: doa10∆
Numbers only.

> print(dat)
            record.sequence           endpoint.label  observed
1  RTVKNILVSVLPGTEKG [CSL4]  protein stability index      1.65
2  ANSESGHYQAFIRDELD [UBP6]  protein stability index      3.31

List the reported protein stability index of each sequence below.
1. TKPSLRKASCIWLLSYI [ECM29]
2. ATSFSRKKARTFDSSWN [FAS2]

a:
[1.75, 2.22]

###

PROCEDURE TEXT: protein stability index of a GFP-peptide fusion (yeast GPS) (PSI 1-4); higher = more stable; sorted into four equal gates, so the index is relative within each strain
EXPERIMENTAL CONDITIONS: ubr1∆
ENDPOINT LABEL: protein stability index
Answers are plain numbers.

Sample records with protein stability index:
> print(dat)
                    record.sequence  observed
1  SQKAKLMTFNAETKSYD [YLR335W/NUP2]      2.92
2          KIFIAVVWYQRLTMGNV [RRI2]      1.27
3         WSKESNYDCKVISIVGG [PRP28]      2.74

List the reported protein stability index of each sequence below.
1. TTMFENTGWSCSRIIKI [RGR1]
2. SHISASASPHLAPNMQL [SNF2]
3. FGKTGDQKETKKGESEK [YOR098C/NUP1]

a:
[3.51, 3.1, 3.35]

List the reported protein stability index of each sequence below.
1. SNLSPDLKFKRHKNKHI [DSN1]
2. YGTATADDADIEMKDVS [MED1]

a:
1: 2.17; 2: 3.15

###

PROCEDURE TEXT: protein stability index of a GFP-peptide fusion (yeast GPS) (PSI 1-4); higher = more stable; sorted into four equal gates, so the index is relative within each strain
EXPERIMENTAL CONDITIONS: doa10∆
Record true (1) whenever protein stability index is at 3 or higher; record false (0) when lower.

> print(dat)
             record.sequence  class.label
1   LESADKQLEKRDYQRIN [POP4]    false (0)
2  IQNDIYLNDLMITKRIL [RPN12]    false (0)
3   VDPKRLAMVIIKEFVDD [DSN1]     true (1)
4   EDCDLVIMALMLMSKIG [POP5]    false (0)
5   KCVVIHNGSHRTVAGFS [ARP7]    false (0)
6   ITSWYENHNKGKLWKDV [QCR9]    false (0)
7   NTNNNNSTGHSSNTNNN [SWI1]    false (0)
8   NEKSQAEQEKAKNIISN [LRP1]    false (0)

q: Hello, I need to know if DTKKVKESPANDQASNE [YIL149C/MLP2] has measured protein stability index not below 3. Thanks!
a: true (1)

q: # iterate: MASRVDETTVPSYYYYV [ROX3]
a: false (0)

q: # iterate: PFVPVLDRRFEIFFKKD [FAS1]
a: false (0)

q: # iterate: TSLQGTYEAIEITDAYC [YMR129W/POM152]
a: false (0)

q: # iterate: AELQSNLQVELLSEHDD [YGL100W/SEH1]
a: false (0)

q: # iterate: QTEIKDIILGQNIKAPS [PRP8]
a: false (0)

q: # iterate: EEELFEVTKEEDIIANY [RRP43]
a: true (1)
